- SYSTEM_TESTED: Recombinant Human Anaplastic Lymphoma Kinase (Homo sapiens)
- Construct: purchased Invitrogen, Carlsbad, Calif
- ASSAY_COMMENT: ALK HTRF kinase assay
- Assay type: biochemical
- STUDY_CONDITIONS: compound at a concentration of 500 nM or 1 mM (not specified); cells shown as percentage
Where a name gives a salt, the structure may show the parent alone.
Labels assigned by ALK % of inhibition at a concentration of 500 nM or 1 mM range: band 1: < 20%; band 2: ≥ 20% and < 30%; band 3: ≥ 30%

• O=C(Nc1ccc2cc1CCc1cncc(c1)Nc1ncc(Cl)c(n1)N2)N1CCN(c2ccccc2)CC1 [Example B292, tris(trifluoroacetate)] = band 3
• O=C(Nc1ccc2cc1CCc1cncc(c1)Nc1ncc(Cl)c(n1)N2)N[C@H]1CCN(C(=O)c2cc(C3CC3)on2)C1 [Example B270, bis(trifluoroacetate)] = band 1
• Clc1cnc2nc1Nc1ccc(CN3CCNCC3)c(c1)CCc1cccc(c1)N2 [Example B224, tris(trifluoroacetate)] = band 2
• CC(C)(C)OC(=O)N1CC[C@@H](NCc2ccc3cc2CCc2cccc(c2)Nc2ncc(Cl)c(n2)N3)C1 [Example B219, bis(trifluoroacetate)] = band 2
• Clc1cnc2nc1Nc1ccc(CN[C@@H]3CCNC3)c(c1)CCc1cccc(c1)N2 [Example B222, tris(trifluoroacetate)] = band 3
• O=C(Nc1ccc2cc1CCc1cccc(c1)Nc1ncc(Cl)c(n1)N2)N[C@@H]1CCNC1 [Example B175, dihydrochloride] = band 1
• COCCNC(=O)Nc1ccc2cc1CCc1cccc(c1)Nc1ncc(Cl)c(n1)N2 [Example B243, trifluoroacetate] = band 1
• O=C(Nc1ccc2cc1CCc1cccc(c1)Nc1ncc(Cl)c(n1)N2)N1CCN(c2ccccn2)CC1 [Example B290, bis(trifluoroacetate)] = band 3
• Cc1cc(C(=O)N2CC[C@H](NC(=O)Nc3ccc4cc3CCc3cncc(c3)Nc3ncc(Cl)c(n3)N4)C2)no1 [Example B265, bis(trifluoroacetate)] = band 2
• O=C(Nc1ccc2cc1CCc1cccc(c1)Nc1ncc(Cl)c(n1)N2)NC1CCNCC1 [Example B181, dihydrochloride] = band 1
• CCc1cccc(NC(=O)Nc2ccc3cc2CCc2cccc(c2)Nc2ncc(Cl)c(n2)N3)c1 [Example B99, trifluoroacetate] = band 3
• Clc1cnc2nc1Nc1ccc(CN[C@H]3CCNC3)c(c1)CCc1cccc(c1)N2 [Example B223, tris(trifluoroacetate)] = band 3
• O=C(Nc1ccc2cc1CCc1cccc(c1)Nc1ncc(Cl)c(n1)N2)Nc1c(Cl)cccc1Cl [Example B113, trifluoroacetate] = band 1
• N#Cc1ccccc1S(=O)(=O)Nc1cc2cc(c1)Nc1nc(ncc1Cl)Nc1cccc(c1)CC2 [Example B216, trifluoroacetate] = band 1
• O=C(Nc1ccc2cc1CCc1cncc(c1)Nc1ncc(Cl)c(n1)N2)N1CCN(c2ccccc2F)CC1 [Example B295, tris(trifluoroacetate)] = band 3
• Cc1cc(C(=O)Nc2ccc3cc2CCc2cccc(c2)Nc2ncc(Cl)c(n2)N3)nc(Cl)n1 [Example B280, bis(trifluoroacetate)] = band 1
• CN1CCCC1CCNC(=O)Nc1ccc2cc1CCc1cccc(c1)Nc1ncc(Cl)c(n1)N2 (stereo not shown) [Example B256, bis(trifluoroacetate)] = band 2
• O=C(Nc1ccc2cc1CCc1cccc(c1)Nc1ncc(Cl)c(n1)N2)c1ccc2occc2c1 [Example B79, trifluoroacetate] = band 3
• O=C(Nc1ccc2cc1CCc1cccc(c1)Nc1ncc(Cl)c(n1)N2)c1ccc(C(F)(F)F)cc1 [Example B75, trifluoroacetate] = band 1
• O=C(Nc1ccc2cc1CCc1cncc(c1)Nc1ncc(Cl)c(n1)N2)N[C@H]1CCN(C(=O)c2ccno2)C1 [Example B271, bis(trifluoroacetate)] = band 1
• O=C(Nc1ccc2cc1CCc1cncc(c1)Nc1ncc(Cl)c(n1)N2)N[C@H]1CCN(C(=O)c2ccccc2)C1 [Example B227, bis(trifluoroacetate)] = band 2
• CC(C)(C)OC(=O)N1CC[C@H](NCc2ccc3cc2CCc2cccc(c2)Nc2ncc(Cl)c(n2)N3)C1 [Example B220, bis(trifluoroacetate)] = band 2
• O=C(Nc1ccc2cc1CCc1cccc(c1)Nc1ncc(Cl)c(n1)N2)c1ccc2c(c1)OCO2 [Example B71, trifluoroacetate] = band 3
• O=C(Nc1ccc2cc1CCc1cccc(c1)Nc1ncc(Cl)c(n1)N2)c1cccc(C(F)(F)F)c1 [Example B76, trifluoroacetate] = band 2

---

- SYSTEM_TESTED: Recombinant Human Anaplastic Lymphoma Kinase (Homo sapiens, UniProt Q9UM73)
- Construct: purchased Invitrogen, Carlsbad, Calif
- Sequence (Q9UM73 19-1620): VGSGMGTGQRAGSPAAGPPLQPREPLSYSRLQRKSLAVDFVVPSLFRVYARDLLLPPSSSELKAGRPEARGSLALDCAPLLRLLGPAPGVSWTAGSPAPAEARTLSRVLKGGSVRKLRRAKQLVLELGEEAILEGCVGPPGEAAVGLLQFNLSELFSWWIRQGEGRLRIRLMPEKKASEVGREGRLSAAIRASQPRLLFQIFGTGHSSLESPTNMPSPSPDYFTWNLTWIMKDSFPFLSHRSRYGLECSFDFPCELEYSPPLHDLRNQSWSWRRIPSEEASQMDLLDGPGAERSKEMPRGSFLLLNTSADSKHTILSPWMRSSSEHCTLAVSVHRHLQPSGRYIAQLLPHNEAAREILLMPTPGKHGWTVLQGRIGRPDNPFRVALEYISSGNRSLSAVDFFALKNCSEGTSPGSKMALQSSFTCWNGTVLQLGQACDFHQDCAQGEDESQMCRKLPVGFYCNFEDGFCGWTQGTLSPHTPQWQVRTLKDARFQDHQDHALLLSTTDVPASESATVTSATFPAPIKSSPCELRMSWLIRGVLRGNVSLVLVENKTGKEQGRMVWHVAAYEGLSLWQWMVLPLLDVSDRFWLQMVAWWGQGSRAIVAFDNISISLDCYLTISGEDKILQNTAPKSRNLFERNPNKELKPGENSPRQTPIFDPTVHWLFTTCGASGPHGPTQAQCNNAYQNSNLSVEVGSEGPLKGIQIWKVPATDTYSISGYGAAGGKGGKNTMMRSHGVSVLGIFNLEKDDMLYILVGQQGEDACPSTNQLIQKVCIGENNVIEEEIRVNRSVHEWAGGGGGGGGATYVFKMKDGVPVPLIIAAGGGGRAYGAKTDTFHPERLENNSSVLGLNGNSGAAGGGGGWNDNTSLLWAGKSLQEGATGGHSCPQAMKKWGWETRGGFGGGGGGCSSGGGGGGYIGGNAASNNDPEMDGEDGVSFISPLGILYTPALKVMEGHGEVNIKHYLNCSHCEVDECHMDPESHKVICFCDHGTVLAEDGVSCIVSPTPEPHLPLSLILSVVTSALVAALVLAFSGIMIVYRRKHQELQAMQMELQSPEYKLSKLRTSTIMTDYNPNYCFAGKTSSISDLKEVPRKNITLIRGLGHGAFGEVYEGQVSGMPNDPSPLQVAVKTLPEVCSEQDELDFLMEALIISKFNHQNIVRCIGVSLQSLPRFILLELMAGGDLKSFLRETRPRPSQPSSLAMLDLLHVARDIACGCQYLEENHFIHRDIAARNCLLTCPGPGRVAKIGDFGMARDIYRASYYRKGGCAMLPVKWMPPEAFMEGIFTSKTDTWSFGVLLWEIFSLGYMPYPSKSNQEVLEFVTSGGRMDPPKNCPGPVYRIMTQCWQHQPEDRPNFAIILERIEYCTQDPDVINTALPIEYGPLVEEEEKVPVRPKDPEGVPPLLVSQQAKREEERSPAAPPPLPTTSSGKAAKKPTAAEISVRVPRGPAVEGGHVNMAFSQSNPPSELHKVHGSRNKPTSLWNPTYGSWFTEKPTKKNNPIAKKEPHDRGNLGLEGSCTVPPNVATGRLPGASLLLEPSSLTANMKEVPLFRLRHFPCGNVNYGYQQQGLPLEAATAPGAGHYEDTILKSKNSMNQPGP
- ASSAY_COMMENT: ALK HTRF kinase assay
- Assay type: biochemical
- STUDY_CONDITIONS: percentage inhibition of the example compound at a concentration of 500 nM or 1 mM (not specified which)
Counter-ions that a name gives are not always drawn.
Overview of recorded ALK % of inhibition at a concentration of 500 nM or 1 mM for various molecules
OUTCOME_MEASURE: ALK % of inhibition at a concentration of 500 nM or 1 mM (%)

* Clc1cnc2nc1Nc1ccc(Nc3nc4cccnc4o3)c(c1)CCc1cccc(c1)N2 [Example B333, tris(trifluoroacetate)] | 55
* O=C(Nc1ccc2cc1CCc1cncc(c1)Nc1ncc(Cl)c(n1)N2)N1CCN(c2ccc(Cl)cc2)CC1 [Example B307, tris(trifluoroacetate)] | 74
* CN(Cc1ccc2cc1CCc1cncc(c1)Nc1ncc(Cl)c(n1)N2)CC1CCN(C(=O)c2ccno2)CC1 [Example B345, tris(trifluoroacetate)] | 40
* COc1cccc(N2CCN(C(=O)Nc3ccc4cc3CCc3cncc(c3)Nc3ncc(Cl)c(n3)N4)CC2)c1 [Example B304, tris(trifluoroacetate)] | 67
* Cc1nc(S(=O)(=O)N2CCC(CN(C)Cc3ccc4cc3CCc3cncc(c3)Nc3ncc(Cl)c(n3)N4)CC2)cn1C [Example B343, tris(trifluoroacetate)] | 42
* CN(C)S(=O)(=O)NCCNC(=O)Nc1ccc2cc1CCc1cccc(c1)Nc1ncc(Cl)c(n1)N2 [Example B328, trifluoroacetate] | 16

---

- SYSTEM_TESTED: human JAK3 (a.a. 781-1124) (Homo sapiens)
- Construct: JAK3 (a.a. 781-1124); His tag (N); made in house; host or cells: insect cells (baculovirus)
- Sequence (P52333 781-1124): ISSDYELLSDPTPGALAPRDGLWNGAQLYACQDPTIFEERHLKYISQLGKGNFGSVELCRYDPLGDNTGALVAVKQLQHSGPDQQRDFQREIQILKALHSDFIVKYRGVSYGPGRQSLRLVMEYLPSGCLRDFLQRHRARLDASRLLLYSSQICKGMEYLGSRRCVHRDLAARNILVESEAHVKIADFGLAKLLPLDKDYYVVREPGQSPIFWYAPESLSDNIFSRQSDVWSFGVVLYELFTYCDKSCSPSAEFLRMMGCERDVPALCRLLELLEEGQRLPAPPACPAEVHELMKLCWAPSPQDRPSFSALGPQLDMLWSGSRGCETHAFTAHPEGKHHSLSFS
- ASSAY_COMMENT: In vitro JAK kinase assay (HTRF, phosphorylation of a biotinylated peptide), JAK3
- Format: biochemical
- STUDY_CONDITIONS: Table B1
pIC50: −log10 of the molar value. Structures can show the parent of a compound that is named as a salt.
Overview of recorded pIC50 for various molecules
OUTCOME_MEASURE: pIC50

• N#Cc1ccc(NC(=O)Nc2ccc3cc2CCc2cccc(c2)Nc2ncc(Cl)c(n2)N3)cc1 [Example B96, trifluoroacetate] = 7.35
• O=C(Nc1ccsc1)Nc1ccc2cc1CCc1cccc(c1)Nc1ncc(Cl)c(n1)N2 [Example B89, trifluoroacetate] = 7.40
• Cc1noc(C)c1S(=O)(=O)Nc1ccc2cc1CCc1cccc(c1)Nc1ncc(Cl)c(n1)N2 [Example B152, trifluoroacetate] = 7.96
• Fc1ccc(CN2CCN(Cc3cc4cc(c3)Nc3nc(ncc3Cl)Nc3cccc(c3)CC4)CC2)cc1 [Example B192, tris(trifluoroacetate)] = 6.51
• O=C(Nc1ccc2cc1CCc1cccc(c1)Nc1ncc(Cl)c(n1)N2)N[C@H]1CCN(Cc2ccccc2)C1 [Example B173, bis(trifluoroacetate)] = 6.79

---

- SYSTEM_TESTED: TYK2 (Homo sapiens)
- Sequence (P29597 whole entry): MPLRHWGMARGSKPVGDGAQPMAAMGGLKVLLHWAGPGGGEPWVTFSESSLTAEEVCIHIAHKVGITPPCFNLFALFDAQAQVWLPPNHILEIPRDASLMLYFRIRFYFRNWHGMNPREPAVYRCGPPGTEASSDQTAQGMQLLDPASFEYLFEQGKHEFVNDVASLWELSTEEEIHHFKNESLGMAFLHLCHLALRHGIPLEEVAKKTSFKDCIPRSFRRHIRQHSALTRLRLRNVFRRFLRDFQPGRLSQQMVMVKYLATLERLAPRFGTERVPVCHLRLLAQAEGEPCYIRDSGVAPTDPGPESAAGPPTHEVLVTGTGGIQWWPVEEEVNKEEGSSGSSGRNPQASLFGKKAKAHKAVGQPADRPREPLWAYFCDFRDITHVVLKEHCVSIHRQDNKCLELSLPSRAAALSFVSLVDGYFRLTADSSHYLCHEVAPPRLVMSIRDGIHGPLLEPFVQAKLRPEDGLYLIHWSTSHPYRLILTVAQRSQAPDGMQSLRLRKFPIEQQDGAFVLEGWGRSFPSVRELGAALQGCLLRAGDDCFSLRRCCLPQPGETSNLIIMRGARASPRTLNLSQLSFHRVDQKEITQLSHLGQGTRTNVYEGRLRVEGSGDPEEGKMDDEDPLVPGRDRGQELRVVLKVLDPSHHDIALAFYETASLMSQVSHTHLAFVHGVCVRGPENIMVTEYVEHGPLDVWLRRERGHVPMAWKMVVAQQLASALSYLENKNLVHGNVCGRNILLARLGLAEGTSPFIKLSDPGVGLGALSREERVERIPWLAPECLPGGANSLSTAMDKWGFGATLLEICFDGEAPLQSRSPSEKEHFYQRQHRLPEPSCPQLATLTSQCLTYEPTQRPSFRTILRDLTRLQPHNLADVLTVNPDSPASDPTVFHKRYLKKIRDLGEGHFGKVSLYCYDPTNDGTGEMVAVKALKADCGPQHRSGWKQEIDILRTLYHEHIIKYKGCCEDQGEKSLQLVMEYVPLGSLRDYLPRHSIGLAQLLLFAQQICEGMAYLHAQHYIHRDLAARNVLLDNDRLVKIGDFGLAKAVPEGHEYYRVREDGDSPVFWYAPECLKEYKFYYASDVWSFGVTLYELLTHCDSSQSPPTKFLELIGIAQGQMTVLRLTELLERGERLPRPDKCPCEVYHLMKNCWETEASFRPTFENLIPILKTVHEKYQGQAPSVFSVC
- ASSAY_COMMENT: TYK2 kinase inhibition (Table A1)
- Format: biochemical
- STUDY_CONDITIONS: Table B1
Structures can show the parent of a compound that is named as a salt.
Label t when IC50 is strictly below 0.02 µM; otherwise label f.

• Cc1noc(C)c1NC(=O)Nc1ccc2cc1CCc1cccc(c1)Nc1ncc(Cl)c(n1)N2 [Example B94, trifluoroacetate] = t
• O=C(Nc1ccc2cc1CCc1cccc(c1)Nc1ncc(Cl)c(n1)N2)c1ccc(F)cc1 [Example B49, trifluoroacetate] = t
• N#CC1(c2ccccc2)CCN(C(=O)Nc2ccc3cc2CCc2cncc(c2)Nc2ncc(Cl)c(n2)N3)CC1 [Example B322, bis(trifluoroacetate)] = f
• O=S(=O)(Nc1ccc2cc1CCc1cccc(c1)Nc1ncc(Cl)c(n1)N2)c1cccc(C(F)(F)F)c1 [Example B163, trifluoroacetate] = t
• O=C(Nc1ccccc1CCl)Nc1ccc2cc1CCc1cccc(c1)Nc1ncc(Cl)c(n1)N2 [Example B108, trifluoroacetate] = t
• Cc1ncoc1C(=O)N1CC[C@H](NC(=O)Nc2ccc3cc2CCc2cncc(c2)Nc2ncc(Cl)c(n2)N3)C1 [Example B273, bis(trifluoroacetate)] = f
• CN(Cc1ccc2cc1CCc1cncc(c1)Nc1ncc(Cl)c(n1)N2)CC1CCNCC1 = f
• Cc1cc(C(=O)N2CCC(CN(C)Cc3ccc4cc3CCc3cncc(c3)Nc3ncc(Cl)c(n3)N4)CC2)no1 [Example B344, tris(trifluoroacetate)] = f
• CC1CN(C(=O)Nc2ccc3cc2CCc2cncc(c2)Nc2ncc(Cl)c(n2)N3)CCN1c1ccccc1 (centres unmarked) [Example B320, tris(trifluoroacetate)] = f
• CC(C)(C)OC(=O)N1CCC(NC(=O)Nc2ccc3cc2CCc2cccc(c2)Nc2ncc(Cl)c(n2)N3)CC1 = f
• Cc1csc(NC(=O)Nc2ccc3cc2CCc2cccc(c2)Nc2ncc(Cl)c(n2)N3)n1 = f
• CCCS(=O)(=O)NCCNC(=O)Nc1ccc2cc1CCc1cccc(c1)Nc1ncc(Cl)c(n1)N2 [Example B326, trifluoroacetate] = t
• O=C(Nc1ccc2cc1CCc1cncc(c1)Nc1ncc(Cl)c(n1)N2)N1CCN(c2cccc(Cl)c2)CC1 [Example B306, tris(trifluoroacetate)] = f
